Recorded measurements of relative viability, one per entry
system: EMC-BAC-2; assay: relative viability (nuclei count vs DMSO), 5 days (fraction); higher = more cells survive; conditions: first compound 6.325 µM
Quantity kind: relative viability

compound="Cc1csc(=NC2CCCCC2)n1/N=C/c1ccc(O)c(O)c1O [MIM1] + COc1cc2c(Oc3ccc(NC(=O)C4(C(=O)Nc5ccc(F)cc5)CC4)cc3F)ccnc2cc1OCCCN1CCOCC1 [Foretinib] (partner 0.25 µM)" result_number=0.697
compound="Cc1csc(=NC2CCCCC2)n1/N=C/c1ccc(O)c(O)c1O [MIM1] + Cc1nc(NC(=O)N2CCC[C@H]2C(N)=O)sc1-c1ccnc(C(C)(C)C(F)(F)F)c1 [Alpelisib] (partner 2 µM)" result_number=0.682
compound="Cc1csc(=NC2CCCCC2)n1/N=C/c1ccc(O)c(O)c1O [MIM1] + Nc1nc2[nH]cc(CCc3ccc(C(=O)N[C@@H](CCC(=O)O)C(=O)O)cc3)c2c(=O)[nH]1 [Pemetrexed] (partner 0.2 µM)" result_number=0.448
compound="Cc1csc(=NC2CCCCC2)n1/N=C/c1ccc(O)c(O)c1O [MIM1] + O=C(c1cc(Cc2n[nH]c(=O)c3ccccc23)ccc1F)N1CCN(C(=O)C2CC2)CC1 [Olaparib] (partner 8 µM)" result_number=0.378
compound="Cc1csc(=NC2CCCCC2)n1/N=C/c1ccc(O)c(O)c1O [MIM1] + N=C(N)NC(=N)NCCc1ccccc1 [Phenformin] (partner 250 µM)" result_number=0.48
compound="Cc1csc(=NC2CCCCC2)n1/N=C/c1ccc(O)c(O)c1O [MIM1] + O=C(CCCCCCC(=O)Nc1ccccc1)NO [Vorinostat] (partner 1 µM)" result_number=0.313

###

test system: LCLC-97TM1; test: relative viability (nuclei count vs DMSO), 5 days (fraction); higher = more cells survive; settings: first compound 0.2 µM
relative viability values for the compounds below.
Quantity kind: relative viability

compound="Cc1csc(=NC2CCCCC2)n1/N=C/c1ccc(O)c(O)c1O [MIM1] + NC(=O)Nc1cc(-c2cccc(F)c2)sc1C(=O)N[C@H]1CCCNC1 [AZD7762] (partner 0.2 µM)" quantity_kind="relative viability" result_number=0.231
compound="CN1CCN(CCOc2cc(OC3CCOCC3)c3c(Nc4c(Cl)ccc5c4OCO5)ncnc3c2)CC1 [Saracatinib] + Nc1nc2[nH]cc(CCc3ccc(C(=O)N[C@@H](CCC(=O)O)C(=O)O)cc3)c2c(=O)[nH]1 [Pemetrexed] (partner 0.2 µM)" quantity_kind="relative viability" result_number=0.134
compound="CCNC(=O)c1noc(-c2cc(C(C)C)c(O)cc2O)c1-c1ccc(CN2CCOCC2)cc1 [Luminespib] + Cc1cc(Nc2cc(N3CCN(C)CC3)nc(Sc3ccc(NC(=O)C4CC4)cc3)n2)n[nH]1 [Tozasertib] (partner 0.1 µM)" quantity_kind="relative viability" result_number=0.214
compound="Cc1csc(=NC2CCCCC2)n1/N=C/c1ccc(O)c(O)c1O [MIM1] + N=C(N)NC(=N)NCCc1ccccc1 [Phenformin] (partner 250 µM)" quantity_kind="relative viability" result_number=0.445
compound="CN1CCN(CCOc2cc(OC3CCOCC3)c3c(Nc4c(Cl)ccc5c4OCO5)ncnc3c2)CC1 [Saracatinib] + CC(=O)Nc1cccc(-n2c(=O)n(C3CC3)c(=O)c3c(Nc4ccc(I)cc4F)n(C)c(=O)c(C)c32)c1 [Trametinib] (partner 0.02 µM)" quantity_kind="relative viability" result_number=0.21
compound="CCNC(=O)c1noc(-c2cc(C(C)C)c(O)cc2O)c1-c1ccc(CN2CCOCC2)cc1 [Luminespib] + CC1(C)CCC(c2ccc(Cl)cc2)=C(CN2CCN(c3ccc(C(=O)NS(=O)(=O)c4ccc(N[C@H](CCN5CCOCC5)CSc5ccccc5)c(S(=O)(=O)C(F)(F)F)c4)cc3)CC2)C1 [Navitoclax] (partner 0.5 µM)" quantity_kind="relative viability" result_number=0.338
compound="CN1CCN(CCOc2cc(OC3CCOCC3)c3c(Nc4c(Cl)ccc5c4OCO5)ncnc3c2)CC1 [Saracatinib] + COc1cccc2cc(-c3nc([C@H]4CC[C@H](C(=O)O)CC4)n4ncnc(N)c34)[nH]c12 [OSI-027] (partner 0.5 µM)" quantity_kind="relative viability" result_number=0.221
compound="CN1CCN(CCOc2cc(OC3CCOCC3)c3c(Nc4c(Cl)ccc5c4OCO5)ncnc3c2)CC1 [Saracatinib] + CS(=O)(=O)CCNCc1ccc(-c2ccc3ncnc(Nc4ccc(OCc5cccc(F)c5)c(Cl)c4)c3c2)o1 [Lapatinib] (partner 2 µM)" quantity_kind="relative viability" result_number=0.771
compound="Cc1csc(=NC2CCCCC2)n1/N=C/c1ccc(O)c(O)c1O [MIM1] + C[C@@H](Oc1cc(-c2cnn(C3CCNCC3)c2)cnc1N)c1c(Cl)ccc(F)c1Cl [Crizotinib] (partner 1 µM)" quantity_kind="relative viability" result_number=0.327
compound="Cc1csc(=NC2CCCCC2)n1/N=C/c1ccc(O)c(O)c1O [MIM1] + CCNC(=O)c1noc(-c2cc(C(C)C)c(O)cc2O)c1-c1ccc(CN2CCOCC2)cc1 [Luminespib] (partner 0.01 µM)" quantity_kind="relative viability" result_number=0.783
compound="CCNC(=O)c1noc(-c2cc(C(C)C)c(O)cc2O)c1-c1ccc(CN2CCOCC2)cc1 [Luminespib] + CS(=O)(=O)N1CCN(Cc2cc3nc(-c4cccc5[nH]ncc45)nc(N4CCOCC4)c3s2)CC1 [Pictilisib] (partner 1 µM)" quantity_kind="relative viability" result_number=0.0923
compound="Cc1csc(=NC2CCCCC2)n1/N=C/c1ccc(O)c(O)c1O [MIM1] + Nc1nc2[nH]cc(CCc3ccc(C(=O)N[C@@H](CCC(=O)O)C(=O)O)cc3)c2c(=O)[nH]1 [Pemetrexed] (partner 0.2 µM)" quantity_kind="relative viability" result_number=0.147
compound="CN1CCN(CCOc2cc(OC3CCOCC3)c3c(Nc4c(Cl)ccc5c4OCO5)ncnc3c2)CC1 [Saracatinib] + CS(=O)(=O)N1CCN(Cc2cc3nc(-c4cccc5[nH]ncc45)nc(N4CCOCC4)c3s2)CC1 [Pictilisib] (partner 1 µM)" quantity_kind="relative viability" result_number=0.12
compound="CN1CCN(CCOc2cc(OC3CCOCC3)c3c(Nc4c(Cl)ccc5c4OCO5)ncnc3c2)CC1 [Saracatinib] + O=C(c1cc(Cc2n[nH]c(=O)c3ccccc23)ccc1F)N1CCN(C(=O)C2CC2)CC1 [Olaparib] (partner 8 µM)" quantity_kind="relative viability" result_number=0.291
compound="Cc1csc(=NC2CCCCC2)n1/N=C/c1ccc(O)c(O)c1O [MIM1] + CC1(C)CCC(c2ccc(Cl)cc2)=C(CN2CCN(c3ccc(C(=O)NS(=O)(=O)c4ccc(N[C@H](CCN5CCOCC5)CSc5ccccc5)c(S(=O)(=O)C(F)(F)F)c4)cc3)CC2)C1 [Navitoclax] (partner 0.5 µM)" quantity_kind="relative viability" result_number=0.567
compound="CN1CCN(CCOc2cc(OC3CCOCC3)c3c(Nc4c(Cl)ccc5c4OCO5)ncnc3c2)CC1 [Saracatinib] + N=C(N)NC(=N)NCCc1ccccc1 [Phenformin] (partner 250 µM)" quantity_kind="relative viability" result_number=0.399
